IC50 values for the compounds below.
biological target: CyclinB1/CDK1 (Homo sapiens); construct: purchased Eurofins, discovery 14-450; assay: Fluorescence Polarization (FP) competitive binding assay, Cyclin B1/Cdk1; settings: 10 nM Cyclin B1/Cdk1, 2 nM FAM probe; average of 2-3 independent experiments; read-out: Cyclin B FP IC50;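 further: fluorescence polarization read after equilibration at room temperature, with IC50 taken from serially diluted dose-response curves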
*1 amine or outer side, *2 acyl side, *3 side chain or, on linkers, in order; H or OH if unused. Where a SMILES comes first, the peptide text is derived from it. Bridges are numbered along the chain shown (N, C = ends). [ ]: non-standard residue; d: D form. The star is where a group is joined. X78 = CN1CCN(C2(c3ccc(-c4ccc(Cl)cc4C[C@@H](C(=O)[*:2])N(C)[*:1])cc3)CC2)CC1; X82 = CN([C@@H](Cc1cc(Cl)ccc1-c1cnn(S(C)(=O)=O)c1)C(=O)[*:2])[*:1]; NMehhhLys(Me) = CN([C@@H](CCCCCCCN(C)[*:3])C(=O)[*:2])[*:1]; Oxane2carbonyl(2R-CF3) = O=C([C@@]1(C(F)(F)F)CCCCO1)*; cBuCO(3,3-F2-1-CF3) = O=C(C1(C(F)(F)F)CC(F)(F)C1)*; Pro(trans-4-F) = O=C(O)[C@@H]1C[C@@H](F)CN1; Gly(cPr) = N[C@H](C(=O)O)C1CC1
Form entry: value (nM) — number only.

Ask | Quick one: IC50 for CC(C)C[C@@H]1NC(=O)[C@@H](N(C)C(=O)[C@@H](NC(=O)[C@@H]2C[C@@H](F)CN2C(=O)[C@@]2(C(F)(F)F)CCCCO2)C2CC2)CCCCCCCN(C)C(=O)[C@H](Cc2cc(Cl)ccc2-c2cnn(S(C)(=O)=O)c2)N(C)C1=O [Example 299] ({Oxane2carbonyl(2R-CF3)}-[Pro(trans-4-F)][Gly(cPr)][NMehhhLys(Me)]L[X82]; lactam 3-C) ?
Reply | 20

Ask | Quick one: IC50 for CC(C)C[C@@H]1NC(=O)[C@@H](N(C)C(=O)[C@@H](NC(=O)[C@@H]2C[C@@H](F)CN2C(=O)C2(C(F)(F)F)CC(F)(F)C2)C2CC2)CCCCCCCN(C)C(=O)[C@H](Cc2cc(Cl)ccc2-c2ccc(C3(N4CCN(C)CC4)CC3)cc2)N(C)C1=O [Example 381] ({cBuCO(3,3-F2-1-CF3)}-[Pro(trans-4-F)][Gly(cPr)][NMehhhLys(Me)]L[X78]; lactam 3-C) ?
Reply | 20

Ask | Quick one: IC50 for CC(C)C[C@@H]1NC(=O)[C@@H](N(C)C(=O)[C@@H](NC(=O)[C@@H]2C[C@@H](F)CN2C(=O)C2(C(F)(F)F)CC(F)(F)C2)C2CC2)CCCCCCN(C)C(=O)[C@H](Cc2cc(Cl)ccc2-c2cnn(C)c2)N(C)C1=O ?
Reply | 20

* * *

target: CyclinA2/CDK2 (Homo sapiens, UniProt P20248); construct: purchased CRELUX Protein Services; assay: Fluorescence Polarization (FP) competitive binding assay, Cyclin A2/Cdk2; details: 8 nM Cyclin A2/Cdk2, 2 nM FAM probe; average of 2-3 independent experiments; read-out: Cyclin A FP IC50;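 further: plates equilibrated two hours at room temperature before polarization reading, IC50 fitted from eight-concentration compound titration curves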
*1 amine or outer side, *2 acyl side, *3 side chain or, on linkers, in order; H or OH if unused. Where a SMILES comes first, the peptide text is derived from it. Bridges are numbered along the chain shown (N, C = ends). [ ]: non-standard residue; d: D form. The star is where a group is joined. X105 = CN([C@@H](Cc1cc(Cl)ccc1-c1cnn(C2CCOC2)c1)C(=O)[*:2])[*:1]; X24 = CN([C@@H](Cc1cc(Cl)ccc1-c1cnn(C(C)(C)C)c1)C(=O)[*:2])[*:1]; X151 = CN([C@@H](Cc1cc(Cl)ccc1-c1cnn(C2CCC2)c1)C(=O)[*:2])[*:1]; NMehhhLys(Me) = CN([C@@H](CCCCCCCN(C)[*:3])C(=O)[*:2])[*:1]; X117 = Cc1cc(-c2ccc(F)cc2C[C@@H](C(=O)[*:2])N(C)[*:1])cnn1; NMe(hhhLys) = CN([C@@H](CCCCCCCN[*:3])C(=O)[*:2])[*:1]; X96 = CN([C@@H](Cc1cc(Cl)cc2ccn(C)c12)C(=O)[*:2])[*:1]; cBuCO(3,3-F2-1-CF3) = O=C(C1(C(F)(F)F)CC(F)(F)C1)*; X133 = Cc1ncc(Cl)cc1C[C@@H](C(=O)[*:2])N(C)[*:1]; Pro(trans-4-F) = O=C(O)[C@@H]1C[C@@H](F)CN1; Gly(cPr) = N[C@H](C(=O)O)C1CC1
outcome-measure: pIC50
By convention, pIC50 is the negative base-10 log of a molar concentration.

Solved cases (5 shown):
CC(C)C[C@@H]1NC(=O)[C@@H](N(C)C(=O)[C@@H](NC(=O)[C@@H]2C[C@@H](F)CN2C(=O)C2(C(F)(F)F)CC(F)(F)C2)C2CC2)CCCCCCCN(C)C(=O)[C@H](Cc2cc(Cl)ccc2-c2cnn(C3CCOC3)c2)N(C)C1=O (stereo partly drawn) [Example 113] ({cBuCO(3,3-F2-1-CF3)}-[Pro(trans-4-F)][Gly(cPr)][NMehhhLys(Me)]L[X105]; lactam 3-C)
7.70
CC(C)C[C@@H]1NC(=O)[C@@H](N(C)C(=O)[C@@H](NC(=O)[C@@H]2C[C@@H](F)CN2C(=O)C2(C(F)(F)F)CC(F)(F)C2)C2CC2)CCCCCCCN(C)C(=O)[C@H](Cc2cc(Cl)cc3ccn(C)c23)N(C)C1=O [Example 392] ({cBuCO(3,3-F2-1-CF3)}-[Pro(trans-4-F)][Gly(cPr)][NMehhhLys(Me)]L[X96]; lactam 3-C)
6.64
CC(C)C[C@@H]1NC(=O)[C@@H](N(C)C(=O)[C@@H](NC(=O)[C@@H]2C[C@@H](F)CN2C(=O)C2(C(F)(F)F)CC(F)(F)C2)C2CC2)CCCCCCCN(C)C(=O)[C@H](Cc2cc(Cl)ccc2-c2cnn(C3CCC3)c2)N(C)C1=O [Example 112] ({cBuCO(3,3-F2-1-CF3)}-[Pro(trans-4-F)][Gly(cPr)][NMehhhLys(Me)]L[X151]; lactam 3-C)
7.70
Cc1cc(-c2ccc(F)cc2C[C@H]2C(=O)NCCCCCCC[C@H](N(C)C(=O)[C@@H](NC(=O)[C@@H]3C[C@@H](F)CN3C(=O)C3(C(F)(F)F)CC(F)(F)C3)C3CC3)C(=O)N[C@@H](CC(C)C)C(=O)N2C)cnn1 [Example 294] ({cBuCO(3,3-F2-1-CF3)}-[Pro(trans-4-F)][Gly(cPr)][NMe(hhhLys)]L[X117]; lactam 3-C)
7.10
Cc1ncc(Cl)cc1C[C@H]1C(=O)NCCCCCCC[C@H](N(C)C(=O)[C@@H](NC(=O)[C@@H]2C[C@@H](F)CN2C(=O)C2(C(F)(F)F)CC(F)(F)C2)C2CC2)C(=O)N[C@@H](CC(C)C)C(=O)N1C [Example 331] ({cBuCO(3,3-F2-1-CF3)}-[Pro(trans-4-F)][Gly(cPr)][NMe(hhhLys)]L[X133]; lactam 3-C)
6.77

Consider the record given below.
Ask | Quick one: pIC50 for CC(C)C[C@@H]1NC(=O)[C@@H](N(C)C(=O)[C@@H](NC(=O)[C@@H]2C[C@@H](F)CN2C(=O)C2(C(F)(F)F)CC(F)(F)C2)C2CC2)CCCCCCCN(C)C(=O)[C@H](Cc2cc(Cl)ccc2-c2cnn(C(C)(C)C)c2)N(C)C1=O [Example 187] ({cBuCO(3,3-F2-1-CF3)}-[Pro(trans-4-F)][Gly(cPr)][NMehhhLys(Me)]L[X24]; lactam 3-C) ?
Reply | 7.70

* * *

test system: NCI-H1048 cells; experiment: MTT proliferation assay, NCI-H1048; assay type: cell-based; conditions: 5 days compound exposure, 1:3 serial dilution starting at 10 μM;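 further: Dose-response in 96-well plates over 8 or 10 concentration points, with exposure spanning 3-4 cell doublings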
*1 amine or outer side, *2 acyl side, *3 side chain or, on linkers, in order; H or OH if unused. Where a SMILES comes first, the peptide text is derived from it. Bridges are numbered along the chain shown (N, C = ends). [ ]: non-standard residue; d: D form. The star is where a group is joined. X212 = CN1CCC(Oc2ccc(-c3ccc(Cl)cc3C[C@@H](C(=O)[*:2])N(C)[*:1])cn2)CC1; X26 = CN([C@@H](Cc1cc(F)ccc1-c1cnn(C2CC2)c1)C(=O)[*:2])[*:1]; NMehhhLys(Me) = CN([C@@H](CCCCCCCN(C)[*:3])C(=O)[*:2])[*:1]; NMe3Pal(2-OiPr,5-Cl) = CN[C@@H](Cc1cc(Cl)cnc1OC(C)C)C(=O)O; X194 = CN([C@@H](Cc1cc(Cl)ccc1-c1ccnnc1)C(=O)[*:2])[*:1]; NMe(hhhLys) = CN([C@@H](CCCCCCCN[*:3])C(=O)[*:2])[*:1]; Cyclobutanecarbonyl(1-CF3) = O=C(C1(C(F)(F)F)CCC1)*; cBuCO(3,3-F2-1-CF3) = O=C(C1(C(F)(F)F)CC(F)(F)C1)*; Pro(trans-4-F) = O=C(O)[C@@H]1C[C@@H](F)CN1; X27 = O=C([C@]1(C(F)(F)F)CCCCO1)*; Gly(cPr) = N[C@H](C(=O)O)C1CC1
outcome-measure: GI50 (nM)
Form entry: value (nM) — number only.

CCN(C(=O)[C@@H](NC(=O)[C@@H]1C[C@@H](F)CN1C(=O)[C@@]1(C(F)(F)F)CCCCO1)C1CC1)[C@H]1CCCCCCCN(C)C(=O)[C@H](Cc2cc(Cl)cnc2OC2CC2)N(C)C(=O)[C@H](CC(C)C)NC1=O
20
CC(C)C[C@@H]1NC(=O)[C@@H](N(C)C(=O)[C@@H](NC(=O)[C@@H]2C[C@@H](F)CN2C(=O)C2(C(F)(F)F)CC(F)(F)C2)C2CC2)CCCCCCCN(C)C(=O)[C@H](Cc2cc(Cl)ccc2-c2ccc(OC3CCN(C)CC3)nc2)N(C)C1=O [Example 396] ({cBuCO(3,3-F2-1-CF3)}-[Pro(trans-4-F)][Gly(cPr)][NMehhhLys(Me)]L[X212]; lactam 3-C)
20
CC(C)C[C@@H]1NC(=O)[C@@H](N(C)C(=O)[C@@H](NC(=O)[C@@H]2C[C@@H](F)CN2C(=O)[C@]2(C(F)(F)F)CCCCO2)C2CC2)CCCCCCCN(C)C(=O)[C@H](Cc2cc(F)ccc2-c2cnn(C3CC3)c2)N(C)C1=O [Example 146] (X27-[Pro(trans-4-F)][Gly(cPr)][NMehhhLys(Me)]L[X26]; lactam 3-C)
20
CC(C)C[C@@H]1NC(=O)[C@@H](N(C)C(=O)[C@@H](NC(=O)[C@@H]2C[C@@H](F)CN2C(=O)C2(C(F)(F)F)CC(F)(F)C2)C2CC2)CCCCCCCN(C)C(=O)[C@H](Cc2cc(Cl)cnc2OC(C)C)N(C)C1=O [Example 120] ({cBuCO(3,3-F2-1-CF3)}-[Pro(trans-4-F)][Gly(cPr)][NMehhhLys(Me)]L[NMe3Pal(2-OiPr,5-Cl)]; lactam 3-C)
100

Ask | Quick one: GI50 for CC(C)C[C@@H]1NC(=O)[C@@H](N(C)C(=O)[C@@H](NC(=O)[C@@H]2C[C@@H](F)CN2C(=O)C2(C(F)(F)F)CC(F)(F)C2)C2CC2)CCCCCCCNC(=O)[C@H](Cc2cc(Cl)ccc2-c2ccnnc2)N(C)C1=O [Example 291] ({cBuCO(3,3-F2-1-CF3)}-[Pro(trans-4-F)][Gly(cPr)][NMe(hhhLys)]L[X194]; lactam 3-C) ?
Reply | 120

Ask | Quick one: GI50 for CC(C)C[C@@H]1NC(=O)[C@@H](N(C)C(=O)[C@@H](NC(=O)[C@@H]2C[C@@H](F)CN2C(=O)C2(C(F)(F)F)CCC2)C2CC2)CCCCCCCN(C)C(=O)[C@H](Cc2cc(Cl)cnc2OC(C)C)N(C)C1=O [Example 119] ({Cyclobutanecarbonyl(1-CF3)}-[Pro(trans-4-F)][Gly(cPr)][NMehhhLys(Me)]L[NMe3Pal(2-OiPr,5-Cl)]; lactam 3-C) ?
Reply | 250

Ask | Quick one: GI50 for CC(C)C[C@@H]1NC(=O)[C@@H](N(C)C(=O)[C@@H](NC(=O)[C@@H]2C[C@@H](F)CN2C(=O)C2(C(F)(F)F)CC(F)(F)C2)C2CC2)CC=CCCCCNC(=O)[C@H](Cc2cc(Cl)ccc2-c2cnn(C3CC3)c2)N(C)C1=O ?
Reply | 130

This collection of values is drawn from patent US20240408169A1.
